Assignment: determine reported pIC50 for the given compounds.
- TARGET OR TEST SYSTEM: Mitogen-activated protein kinase 9 (Homo sapiens)
- Sequence (P45984 whole entry): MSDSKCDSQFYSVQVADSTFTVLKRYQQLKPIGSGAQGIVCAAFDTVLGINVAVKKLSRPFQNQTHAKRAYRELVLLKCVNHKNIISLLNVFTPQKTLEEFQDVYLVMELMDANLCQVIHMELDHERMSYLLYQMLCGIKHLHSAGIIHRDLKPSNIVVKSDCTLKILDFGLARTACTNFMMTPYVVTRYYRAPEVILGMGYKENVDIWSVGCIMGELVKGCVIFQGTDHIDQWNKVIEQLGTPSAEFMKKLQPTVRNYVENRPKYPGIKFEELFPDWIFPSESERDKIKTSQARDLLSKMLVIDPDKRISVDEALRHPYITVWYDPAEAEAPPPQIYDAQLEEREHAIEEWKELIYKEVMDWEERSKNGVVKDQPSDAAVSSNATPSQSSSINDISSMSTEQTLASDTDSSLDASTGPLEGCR
- ASSAY NAME: Inhibition of JNK2 (unknown origin) incubated for 20 mins in presence of 33P-ATP
Answers are plain numbers, as −log10 of the molar value.

Some solved entries appear below for comparison.
{"columns": ["COMPOUND", "pIC50"],
 "data": [
  ["CNC(=O)C1Cc2nc(-c3ccc(Cl)c(Cl)c3)n(-c3ccnc(N[C@H]4CCCN(C(=O)C5CC5)C4)n3)c2C1 (some centres undefined)", 7.81],
  ["CNC(=O)C1Cc2nc(-c3ccc4ccccc4c3)n(-c3ccnc(N[C@H]4CCCN(C(=O)C5CC5)C4)n3)c2C1 (some centres undefined)", 8.12],
  ["CCOC(=O)C1Cc2nc(-c3ccc(Cl)c(Cl)c3)n(-c3ccnc(N[C@@H]4CCCN(C(=O)C5CC5)C4)n3)c2C1 (some centres undefined)", 8.07],
  ["CCOC(=O)C1Cc2nc(-c3ccc4ccccc4c3)n(-c3ccnc(N[C@@H]4CCCN(C(=O)C5CC5)C4)n3)c2C1 (some centres undefined)", 7.92],
  ["CCOC(=O)C1Cc2nc(-c3ccc(Cl)c(Cl)c3)n(-c3ccnc(N[C@H]4CCCN(C(=O)C5CC5)C4)n3)c2C1 (some centres undefined)", 7.83]
]}

State the recorded pIC50 for every item in the following list.
1. CCOC(=O)C1Cc2nc(-c3ccc4ccccc4c3)n(-c3ccnc(N[C@H]4CCCN(C(=O)C5CC5)C4)n3)c2C1 (some centres undefined)
2. CNC(=O)C1Cc2nc(-c3ccc4ccccc4c3)n(-c3ccnc(N[C@@H]4CCCN(C(=O)C5CC5)C4)n3)c2C1 (some centres undefined)
3. NC(=O)C1Cc2nc(-c3ccc(Cl)c(Cl)c3)n(-c3ccnc(N[C@H]4CCCN(C(=O)C5CC5)C4)n3)c2C1 (some centres undefined)

## Result
7.89
7.79
7.53

## Task // returns reported pIC50 for input NC(=O)C1Cc2nc(-c3ccc(Cl)c(Cl)c3)n(-c3ccnc(N[C@@H]4CCCN(C(=O)C5CC5)C4)n3)c2C1 (some centres undefined)
## Result 7.78

====

- TARGET OR TEST SYSTEM: Mitogen-activated protein kinase 10 (Homo sapiens, UniProt P53779)
- Sequence (P53779 whole entry): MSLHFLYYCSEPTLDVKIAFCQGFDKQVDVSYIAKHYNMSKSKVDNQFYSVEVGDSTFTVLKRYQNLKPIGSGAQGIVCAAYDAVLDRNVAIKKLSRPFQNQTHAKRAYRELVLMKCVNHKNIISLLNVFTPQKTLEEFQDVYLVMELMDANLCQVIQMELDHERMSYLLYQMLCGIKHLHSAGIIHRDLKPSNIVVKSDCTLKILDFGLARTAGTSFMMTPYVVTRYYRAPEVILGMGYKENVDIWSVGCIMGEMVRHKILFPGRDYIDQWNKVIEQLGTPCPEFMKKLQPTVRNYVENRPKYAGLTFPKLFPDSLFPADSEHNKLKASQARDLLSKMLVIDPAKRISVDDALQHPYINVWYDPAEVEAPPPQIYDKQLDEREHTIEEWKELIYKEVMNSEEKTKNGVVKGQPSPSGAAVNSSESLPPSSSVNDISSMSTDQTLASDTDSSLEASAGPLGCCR
- ASSAY NAME: Inhibition of JNK3 (unknown origin) using ATF2 as substrate incubated for 40 mins in presence of [gamma33P]ATP by scintillation counting analysis
pIC50: −log10 of the molar value.
Class field: derived from pIC50; ranges A = under 7, B = from 7 up to 8, C = 8 and over

{"columns": ["COMPOUND", "LABEL VALUE"],
 "data": [
  ["CNC(=O)C1Cc2nc(-c3ccc(F)c(C(F)(F)F)c3)n(-c3ccnc(N[C@H]4CCCN(C(=O)C5CC5)C4)n3)c2C1 (stereo partly specified)", "B"],
  ["NC(=O)C1Cc2nc(-c3ccc4ccccc4c3)n(-c3ccnc(N[C@@H]4CCN(C(=O)C5CC5)C4)n3)c2C1 (stereo partly specified)", "B"],
  ["CCOC(=O)C1Cc2nc(-c3ccc(Cl)c(Cl)c3)n(-c3ccnc(N[C@@H]4CCCN(C(=O)C5CC5)C4)n3)c2C1 (stereo partly specified)", "C"]
]}

## Task Assign a category based on measured pIC50 for CCOC(=O)C1Cc2nc(-c3ccc(F)c(C(F)(F)F)c3)n(-c3ccnc(N[C@H]4CCCN(C(=O)C5CC5)C4)n3)c2C1 (stereo partly specified) and give only the class name.
## Result B

## Task Proceed to CCOC(=O)C1Cc2nc(-c3ccc4c(c3)OCO4)n(-c3ccnc(N[C@H]4CCN(C(=O)C5CC5)C4)n3)c2C1 (stereo partly specified)
## Result A

## Task Proceed to NC(=O)C1Cc2nc(-c3ccc(Cl)c(Cl)c3)n(-c3ccnc(N[C@H]4CCCN(C(=O)C5CC5)C4)n3)c2C1 (stereo partly specified)
## Result C
